- test: AUC (0 to infinity) in BALB/c mouse at 1 mg/kg, iv
- Format: ADME, organism-based
- Set-up: time infinity, dose 1 mg/kg, route intravenous
- assay-conditions: plasma
observation-type: AUC(0-inf) (ng·h/mL)

1) CN(CCc1c[nH]c2ccccc12)C(=O)c1ccc(-c2ccccc2)cc1 : 189

====

- target-of-assay: CYP2D6 (Homo sapiens)
- Sequence (P10635 whole entry): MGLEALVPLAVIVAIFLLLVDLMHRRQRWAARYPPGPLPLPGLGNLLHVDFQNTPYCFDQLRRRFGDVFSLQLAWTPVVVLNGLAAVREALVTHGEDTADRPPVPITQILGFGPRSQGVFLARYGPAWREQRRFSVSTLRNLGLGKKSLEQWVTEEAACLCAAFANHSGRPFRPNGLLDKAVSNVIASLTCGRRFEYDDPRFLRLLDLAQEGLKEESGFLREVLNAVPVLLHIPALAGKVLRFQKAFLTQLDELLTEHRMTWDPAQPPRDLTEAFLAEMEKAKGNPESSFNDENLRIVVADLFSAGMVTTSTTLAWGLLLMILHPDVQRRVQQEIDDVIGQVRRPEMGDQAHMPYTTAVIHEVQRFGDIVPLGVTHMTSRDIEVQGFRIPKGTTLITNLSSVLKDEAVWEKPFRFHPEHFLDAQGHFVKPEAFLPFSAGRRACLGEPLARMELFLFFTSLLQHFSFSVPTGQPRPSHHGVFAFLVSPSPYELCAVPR
- test: Inhibition of human recombinant CYP2D6 at 10 uM
- Assay type: ADME
observation-type: inhibition at 10 µM (%)

1. CN(CCc1c[nH]c2ccccc12)C(=O)c1ccc(-c2ccccc2)cc1 : 14
